- Test system: MET
- Procedure Summary: MET biochemical kinase assay
- Design: species or system human; concentration or dose not given beside the values
- Text: A met biochemical kinase assay may be performed for met generally as described above for other kinases by substituting that or the other kinases. […] Incorporation of phosphate into the captured receptors is detected with an anti-phosphotyrosine antibody conjugate with horse radish peroxidase using TMB as a substrate for colorimetric detection.
Reported Met Kinase % Inhibition values are given for each entry in this list.
Measurement Label: Met Kinase % Inhibition

INSERT INTO results (molecule, measurement_label, reported) VALUES
  ('COC1CC(C=C2C(=O)Nc3ccc(S(=O)(=O)N4CCOCC4)cc32)C(OC)O1 (stereo not drawn) [10730/F10]', 'Met Kinase % Inhibition', '42.1%'),
  ('O=C1Nc2ccc(CCCl)cc2C1=Cc1ccc(F)cc1C(F)(F)F [10719/G11]', 'Met Kinase % Inhibition', '24.0%'),
  ('O=C1Nc2ccc(CCCl)cc2C1=Cc1cccc(Br)c1 [10723/G10]', 'Met Kinase % Inhibition', '40.7%'),
  ('Cc1c(Br)ccc2c1C(=Cc1cc(Br)c(O)c(C(C)(C)C)c1)C(=O)N2 [10721/C10]', 'Met Kinase % Inhibition', '44.6%'),
  ('O=C1Nc2ccc(S(=O)(=O)N3CCOCC3)cc2C1=CC(c1cccs1)C(F)(F)F (stereo not drawn) [10732/F02]', 'Met Kinase % Inhibition', '55.6%'),
  ('CCN(CC)c1ccc(C=C2C(=O)Nc3ccc(CCCl)cc32)c(O)c1 [10734/G05]', 'Met Kinase % Inhibition', '57.7%'),
  ('COc1cc(Br)cc(C=C2C(=O)Nc3ccc(CCCl)cc32)c1O [10733/G08]', 'Met Kinase % Inhibition', '79.0%'),
  ('CCc1c(C)[nH]c(C=C2C(=O)Nc3c(Br)cc(Br)cc32)c1C [10719/A05]', 'Met Kinase % Inhibition', '39.6%'),
  ('Cc1ccc2occ(C=C3C(=O)Nc4ccc(Br)c(C)c43)c(=O)c2c1 [10731/C06]', 'Met Kinase % Inhibition', '18.2%');

###

- System Under Test: PDGF-R (Homo sapiens)
- Sequence (P09619 33-1106, species assumed): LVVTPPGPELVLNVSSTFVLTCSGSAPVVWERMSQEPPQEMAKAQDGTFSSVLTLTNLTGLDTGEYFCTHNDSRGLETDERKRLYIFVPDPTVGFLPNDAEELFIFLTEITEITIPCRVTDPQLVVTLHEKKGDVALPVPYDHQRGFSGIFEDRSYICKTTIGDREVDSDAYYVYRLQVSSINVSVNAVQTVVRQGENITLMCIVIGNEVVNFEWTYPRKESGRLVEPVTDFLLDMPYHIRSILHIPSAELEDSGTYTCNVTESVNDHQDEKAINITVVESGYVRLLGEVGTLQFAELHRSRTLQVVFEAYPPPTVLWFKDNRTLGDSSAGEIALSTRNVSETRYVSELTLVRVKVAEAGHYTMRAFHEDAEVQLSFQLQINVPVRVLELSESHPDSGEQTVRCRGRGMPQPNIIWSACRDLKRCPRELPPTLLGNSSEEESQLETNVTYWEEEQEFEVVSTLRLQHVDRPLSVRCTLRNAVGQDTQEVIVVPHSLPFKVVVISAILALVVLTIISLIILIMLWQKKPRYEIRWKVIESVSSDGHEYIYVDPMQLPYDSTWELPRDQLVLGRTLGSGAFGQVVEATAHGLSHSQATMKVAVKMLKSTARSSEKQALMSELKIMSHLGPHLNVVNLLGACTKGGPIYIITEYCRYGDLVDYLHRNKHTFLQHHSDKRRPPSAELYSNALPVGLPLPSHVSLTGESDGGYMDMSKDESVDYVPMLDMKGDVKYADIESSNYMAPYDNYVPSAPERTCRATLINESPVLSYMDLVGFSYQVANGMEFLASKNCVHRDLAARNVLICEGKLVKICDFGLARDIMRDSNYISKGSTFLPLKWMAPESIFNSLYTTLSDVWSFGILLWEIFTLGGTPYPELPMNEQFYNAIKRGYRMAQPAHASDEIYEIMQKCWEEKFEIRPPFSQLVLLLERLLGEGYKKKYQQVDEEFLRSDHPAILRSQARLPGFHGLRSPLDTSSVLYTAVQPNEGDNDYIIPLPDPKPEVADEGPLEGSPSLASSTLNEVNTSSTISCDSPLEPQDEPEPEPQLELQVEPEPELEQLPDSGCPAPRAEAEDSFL
- Procedure Summary: PDGF-R ELISA
- Format: cell-based
Measurement Label: PDGF Kinase %Inhibition (%)

INSERT INTO assay_data (molecule, system_under_test, unit_info, reported) VALUES
  ('COc1cc(C=C2C(=O)Nc3ccc(CCCl)cc32)cc(OC)c1', 'PDGF-R (Homo sapiens)', '%', 0.5),
  ('CC(C)(C)c1cc(C=C2C(=O)Nc3c(Br)cc(Br)cc32)cc(I)c1OCc1ccccc1', 'PDGF-R (Homo sapiens)', '%', 11.5),
  ('CNS(=O)(=O)c1ccc2c(c1)C(=Cc1cc(Br)cc(Br)c1O)C(=O)N2', 'PDGF-R (Homo sapiens)', '%', 28.1),
  ('CC(=O)Oc1ccc(C=C2C(=O)Nc3ccc(S(=O)(=O)N4CCOCC4)cc32)cc1OC(C)=O', 'PDGF-R (Homo sapiens)', '%', -7.7),
  ('CSc1ccc(C=C2C(=O)Nc3ccc(I)cc32)cc1', 'PDGF-R (Homo sapiens)', '%', -22.7),
  ('Cc1cc(C=C2C(=O)Nc3c(Br)cc(Br)cc32)oc1C', 'PDGF-R (Homo sapiens)', '%', -6.4),
  ('Cc1c(Br)ccc2c1C(=Cc1ccccc1OCC(=O)O)C(=O)N2', 'PDGF-R (Homo sapiens)', '%', 11.2),
  ('O=C1Nc2c(Br)cc(Br)cc2C1=Cc1ccc2c(c1)Cc1ccccc1-2', 'PDGF-R (Homo sapiens)', '%', -3.1),
  ('O=C1Nc2ccc(I)cc2C1=Cc1cccc(C(F)(F)F)c1F', 'PDGF-R (Homo sapiens)', '%', 20.9),
  ('CC(C)(C)c1cc(C=C2C(=O)Nc3ccc(CCCl)cc32)c(O)c(C(C)(C)C)c1', 'PDGF-R (Homo sapiens)', '%', -7.7),
  ('Cc1c(Br)ccc2c1C(=C1C(=O)Nc3ccccc31)C(=O)N2', 'PDGF-R (Homo sapiens)', '%', 26.5),
  ('O=C1Nc2ccc(CCCl)cc2C1=CC(c1cccs1)C(F)(F)F (stereo not drawn)', 'PDGF-R (Homo sapiens)', '%', 10.3),
  ('COc1ccc(Br)c(C=C2C(=O)Nc3ccc(CCCl)cc32)c1O', 'PDGF-R (Homo sapiens)', '%', -6.5),
  ('O=C1Nc2ccc(I)cc2C1=Cc1ccc([N+](=O)[O-])cc1', 'PDGF-R (Homo sapiens)', '%', 0.2),
  ('O=C1Nc2ccc(S(=O)(=O)Nc3ccc(C(F)(F)F)cc3)cc2C1=Cc1ccc(N2CCCC2)cc1', 'PDGF-R (Homo sapiens)', '%', 11.8),
  ('COc1cccc(C=C2C(=O)Nc3ccc(S(=O)(=O)Nc4ccc(C(F)(F)F)cc4)cc32)c1O', 'PDGF-R (Homo sapiens)', '%', 47.1),
  ('Cc1c(Br)ccc2c1C(=Cc1cccn1-c1ccc(Cl)cc1)C(=O)N2', 'PDGF-R (Homo sapiens)', '%', 20.3),
  ('CNS(=O)(=O)c1ccc2c(c1)C(=Cc1cc([N+](=O)[O-])c(OC)c(C(C)(C)C)c1)C(=O)N2', 'PDGF-R (Homo sapiens)', '%', 40.7);

Numbers sourced from patent EP1247803A2.
